# assay-protocol: protease stability score; higher = more stable; yeast display proteolysis, trypsin and chymotrypsin;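 further: relative to predicted unfolded state with 0 unfolded-like and 1 meaning tenfold more protease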
observed-property: protease stability score
Write the number on its own, no unit after it.

protease stability score recorded for this sequence, `HEEEKHMEELSRHFLHNEHTGDEKMLKHLADPHAKVFINGRELHGWDVLVEWLNKFKNIKVELHSERVINGRLFLHVNYHVNGRTTELHLILYIVDGKIHTLILEVR` , is 0.756

// protease stability score value for `SEEEDHAKEMFRILIENLITGDEDTLRKLIDPDVRFIYGDKLHVGWKDFREWQHRMDRRVKNMKIHVRDMRVYNGVSHAETEEHYNGKTVETEVHFKVIDGQLKHLEIRIH` : 0.188

Briefly, protease stability score measured for `SEIDEWLHRWFNLWIDAFITGDEDFLKELADPDVRLVDGDFEKVGREEFTRSMRQYLRHARVDHFRIKHQHMQGDKIHVHGHIEMTINGKHIRHEIRLRFVVINGRFHSMHIEID` : 0.975

So for `SEHDKEMREWIKTLFELMYTGDWVILRELADPNAKFRQGDFTKIGREQYERHVRRHLDLLGHDNIEIHWEDVEIVGNYAVFHGHLTFNGKSTHVIIRVFVIDGRMKHEHVEIK` , the logged protease stability score turned out to be 1.3

Summary for this sequence, `TELEDLVKRLWHIWLHAVLTGDEDLLTKLIDPHARLEIHIGDKEFIHIGREEFVRFMREYHRHLRVERVDERSMEVIGNKSHSDVRTVIHIDGRTIDTRMHIDLIVVNGRVKSLEIHVH` : protease stability score is 2.26

Recorded result, `SEDEEFSKEATETILRVIHTGDWDMIKDLADPNARIHVGNYNSWGREEVMRVIRELFEVLGIKHLIFTHVEIDVIDGVVHSIIHGYEEVGDKTIETHIDIVSKKIDGRWRLQRIEIHHR` , protease stability score: 1.29

* * *

Give protease stability score for every item shown.
# assay-protocol: protease stability score; higher = more stable; yeast display proteolysis, trypsin and chymotrypsin;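 further: relative to predicted unfolded state with 0 unfolded-like and 1 meaning tenfold more protease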
No unit in the answer, please; the number alone is enough.

The sequence listed as `SDWNEFLIEVAELLLRWLSTGDEESFHRYVDPRVRLEFNGKELHGREELARFLRHLRWILDHLEFTSREDQGEKFRVEGKSHGHLFFENHFERHDLKNDLNLILVNGRIKEISLRLE` shows protease stability score equal to 1.42

Per the records, this sequence ( `DEDERAYEESVRTFLENNLTGNEEILHRLMDPHVKTDYGDKRYHGMEEATEMIRRLGVNHFHLNSVHHQGDKVHLHGRVIVNGREFQVHIESKKINGRWVIRKVVID` ) has protease stability score equal to 1.27

Looking up `DEKHEFARRYYELEKKYLKTGDEEEWLKYVDPHVRVHVGDKDLVGMELAEEQWREIRYHHIDDKDMRIQGDKLHVKGRVDGTIGDKRHRVDMEVHIEIIDGRFKRIEVRIK` , I found its protease stability score recorded as 0.76

* * *

# assay-protocol: protease stability score; higher = more stable; yeast display proteolysis, trypsin and chymotrypsin;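 further: relative to predicted unfolded state with 0 unfolded-like and 1 meaning tenfold more protease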
observed-property: protease stability score
Quick one: just the number, no unit, thanks!

Lookup result for `TEDQEQAEEHFREEIHHWRTGDEDQLRRLMDPNTRIEIGDKVLHGREHAELFLRRYKGLKIDRFEIRHRDHQGDYVILHTHFRGEVNGRDFENTVQLVVLKVDGRWFLKYIRVE` ; measured protease stability score: 1.64

Entry `DEDEHRTKYWMQILIEVFKTGDWRRLWELFDPNVRLDINGKDSHGRRDMVRVFEEELRHMGINHIELRDFEIQGEKAIVHMTINVDGRRHELELIFLVVDGRVKEIRVHER` , protease stability score reported as 1.88

The value of protease stability score measured for the sequence `HEEEERLKEVLELVVESFRTGDFNYLKNLIDPNVRVTVGDKDVHGRDFFVRIMSEMRVTHYEFRHVERFNGQAHIDGELDIRIGDKRERHEIKIITLKINGKWYMETLIIQ` turned out to be 1.18

# protease stability score (sequence: `DEDERAIHVMLKLVKKAMDTGNEHMETELLDPNVRLDVNGRDVHGREEMRKFLNHHWKEWGVDRIIFLFESIHFQGDKVHIRGYVHINGKDFDVEFIASKVNGRWLVESRHLR` ) is 1.03

The sequence identified as `DEDQKETEEAIKELEKLSKTGNEHDFLRYFDPNMRVEIGDKEIWGRERALEIFHELGVKHIEVKRVDVQGDKIRMDTLLRVNGQELHTQVVALKINGQWILESYRVE` registered its protease stability score at 1.09

`SEDEEHAELALRLWEIVEKTGDETEARKMFDPHTRIIIDGRDLIGWSFIRHLMRRFDHVDIDHKREKRREFQGEKVRMDIEVDMEFVVGEKIYRIDFRVNIVLLKVNGKWRIHSLEIK` has a reported protease stability score of 2.47

Lab note: measured protease stability score of `SEDDETSSKAMHRILEIFETGDWKKLAKLADPNVRLRIDGQDVHGRELFTKIFRTELERFGHEQFEVHKSHEDVQGDKLELHTLVIYGDKRERIEIHSVKFNGVWLISTMRIDRH` was 0.935

Short answer for `HEHTKMLLDMHRLWMELWLTGDEHELEKLLDPNVRIIIHVNGVDISIHGRETVRRVLRHEIKRYDHLEINLKRHSAYDGKVESDTEFRVIFDGKRIELDTRIKNIVINGRTKEWIFELE` : protease stability score was 0.619

Reported protease stability score ( `SEHDEQAEDWTRKHIHWFETGDEELLETLLDPNTRHIVDGQEYHGRENLRRMFHYLLSFMGIKYVRLTNHEVVGDKAHIHMTTNVNGQHTRLILHLIVINGRVHTIEIRVR` ) = 0.544

Entry `SEDERLLREAVEELIHSWETGDFDHVLRMFDPDVRLHFEGRHTHGREVYEQQLRFLWERFKNVRITVEYKHVEVINGKAIVHGKLLLIIGDKTVELTNEIYVRKINGKWLSEEIRIK` , protease stability score reported as 1.44

Consider `DELEEETRRFAKHWVESLLTGDEDKLSRLMDPNVILDVNGREHIGWERAVHHLSRLLKELGAKHINVRLHELRIYDGVAEIDSRLQIIVGDKTEEHNVKLVITKVDGRWVVKSITIH` . Its measured protease stability score is 1.95

Record summary for `SEEDEMVRYVFELYAIAIETGDEDTLRNMFDPNAKIKFDGVDIHGRENIKRILREWRSSVHHWQIREKEIYGDKISLNVFQDLRFTIDGQFRRITTEVKVEIIKINGKWFFTHLEYI` : reported protease stability score = 0.995

Lab book: protease stability score of `DEDERETRFIIKLLLETIQTGDEKTFEELLDPSVRLVVGDKIIHGRDVLSEFFSHARFHRIEIHNMESQGDKAHIDIRVDGKFNGKRKTTEVNLHIEKFDGRWRIKEFRIH` noted as 2.08

Consider `DERTEHNRQLAEEITRALLTGDWHEIEKQADPHVKFRQGEFSYVGREDLVRFWEEFIKKIKNITLRIREIRVIGDKVHIHNDLKIGDKETHVHIILVLIDGRLHHLEIRIE` . Its measured protease stability score is 1.45

Value of protease stability score reported for the sequence `DEIEDHMREVREQLLRDLTTGDWKKMREMLDPHVRIHIGDFHDHGRESAEEWLRKFKGLTLRIHDVRVKIIDGRALVENDGELTYDGRRHRVRIHVYVTKVDGVWMVETLEIRIH` is 1.15

The reported value for `DEITEHTRSLMEVMLRVWETGDWKRFRELADPNVRMNVNGREVHGRDSVAKEIYKMLSDLGVDHSTTHHVDLIGNKAHHDVRMFFNGRETEIRIDIVLINGKVREVNIEIHTR` in terms of protease stability score is 2.14

# protease stability score (sequence: `DESEKLEELIHERLRHLIETGDEDKLAKMADPNVRNRVGDFVHHGRERSHELLKWIFDHLGIDHLHIKHSSVIDGVVHFEIELRINGRTIRLHDHWFFINGRLDEISIHWE` ) is 0.93

Please fill in: protease stability score reported for `SEIEEEIEQAYKLTKHHWETGDEKDIRRNADPHVRVYFNGREYHGWEVLHEVLRLMGAKHVEIHRYEIQGEYVHIDSEVRQGDKRFRMHVESYKVNGRWFIETVFIK` = 0.749

Value of protease stability score reported for the sequence `SDEEKFMHEMYELILKALHTGDEEFLEHFADPNTRLHINGRERHGRDEMKEFFKKFLDHWRIERFHVRSVEIFDGRVTSDTEIRGNIDGVRSEHRTDINIVIVNGRLKEINIHIE` is 0.537

Record `SEREQTVRHWVELLIHLLITGDEETLVHLLDPHARADIDGVEMHGRKTTEFWLKLFPHIKIELRRVEIQGEKVHMDTTMIQGEKERSTRIHLDVINGRIKRHSYEIE` . Reported protease stability score: 0.262

Query `SEEEEHEKEVIKRIREAMLTGDEDTLRHLLDPNVRVNIDGVEIVGMEMILRHLREIRVSIKDLKVTHVRSVNGRVEADTRSHLIIIIGDKKYEEESETRFFILKIDGRWLLTTIEFK` yields protease stability score of 1.49

Looking up `SEDETLAEEAVEEFEKHMETGDEDELIRLVDPHVKIHFNGRDIHGWKWIHVFLRDLGVDVKRIHVKDIEVFNGVVLLRGEFRFRFNGQDFSKDVENIIVKVDGRWFHHEIRIR` , I found its protease stability score recorded as 1.85
